Data origin, for the record: paper PMC6498573

- tgt: Onchocerca volvulus prolyl tRNA synthetase (OvPRS) (Onchocerca volvulus, UniProt A0A2K6VID2)
- Construct: OvPRS construct of 497 amino acids (279–775; 57 kDa), MBP-His tag removed by TEV
- Sequence (A0A2K6VID2 279-775): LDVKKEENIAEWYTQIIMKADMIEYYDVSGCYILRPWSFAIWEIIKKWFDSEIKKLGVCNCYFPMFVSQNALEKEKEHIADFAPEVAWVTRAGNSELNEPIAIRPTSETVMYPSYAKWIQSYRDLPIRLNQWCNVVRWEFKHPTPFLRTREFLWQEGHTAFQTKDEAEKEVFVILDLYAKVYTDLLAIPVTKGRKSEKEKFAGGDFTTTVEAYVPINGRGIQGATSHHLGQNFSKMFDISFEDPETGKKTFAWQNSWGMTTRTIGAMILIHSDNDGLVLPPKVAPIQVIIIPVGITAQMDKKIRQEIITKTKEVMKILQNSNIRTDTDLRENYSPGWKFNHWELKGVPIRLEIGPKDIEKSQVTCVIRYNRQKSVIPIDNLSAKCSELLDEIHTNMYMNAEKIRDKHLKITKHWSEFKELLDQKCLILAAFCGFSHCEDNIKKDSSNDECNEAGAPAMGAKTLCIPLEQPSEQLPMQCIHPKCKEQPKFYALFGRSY
- assaySummary: malachite green aminoacylation assay with recombinant purified OvPRS ([…] proline, […] ATP, […] enzyme)
pIC50: −log10 of the molar value.
measuredMetric: pIC50

Memo: O=C(CC1NCCCC1O)Cn1cnc2cc(Br)c(Cl)cc2c1=O (stereo not shown) , reported pIC50: ~7.52
